Biological target: T1, huIL-17RA-FLAG-polyHis (human, UniProt Q96F46 33-320)
T1 construct: also called IL-17RA-FLAG-pHis; wild-type IL-17RA
Assay: binning; IL-17RA held by bead mAb E
A collection of binders and their measured normalized MFI
API note: the answer field is a bare number with no unit suffix.

Please report the recorded normalized MFI for AMH11/AML11 (antibody, IgG2, V domains shown, human mAb from IgG2 XenoMouse mice; also called AM-11; antibody A) VH: QVQLVESGGGVVQPGRSLRLSCATSGITFSSYGMHWVRQAPGKGLEWVAVIWYDGSNKYYADSVKGRFTISRDNSKNTLYLQMNSLRAEDTAVYYCARDTKDYWGQGTLVTVSS VL: EIVMTQSPATLSVSPGERATLSCRASQSVSSNLAWYQQKPGQAPRLLIYGASTRAAGIPARFSGGGSGTAFTLTISNLQSEDFAVYYCQHYINWPKWTFGQGTKVDIK . 300

Please report the recorded normalized MFI for AMH8/AML8 (antibody, IgG2, V domains shown, human mAb from IgG2 XenoMouse mice; also called AM-8; antibody C) VH: QVQLVQSGAEVKKPGASVKVSCKASGNTFTGYGISWVRQAPGQGLEWMGWISAYNGNTNYAQNLQGRVTMTTDTSTSTAYMELRSLRSDDTAVYYCARRDYDILTGYYNGFDPWGQGTLVTVSS VL: DIQMTQSPSSLSASVGDRVTITCRASQGIRNDLGWYQQKPGKAPKRLIYAASSLQSGVPSRFSGSGSGTEFTLTISSLQPEDFATYYCLQHKSYPLTFGGGTKVEIK . 163

Please report the recorded normalized MFI for AMH20/AML20 (antibody, IgG2, V domains shown, human mAb from IgG2 XenoMouse mice; also called AM-20; antibody R) VH: EVQLVESGGGLVQPGGSLRLSCAASGFTFSSYSMNWVRQAPGKGLEWVSFISARSSTIYYADSVKGRFTISRDNAKNSLYLQMNSLRDEDTAVYYCARPKVGGGMDVWGQGTTVTVSS VL: DIQMTQSPSSLSASVGDRVTITCRASQGISNYLAWYQQKPGKFPELLIYAASTLQSGVPSRFSGSGSGTDFTLTISSLQPEDVATYYCQKYNRAPFTFGPGTKVDIK . 666

Please report the recorded normalized MFI for AMH16/AML16 (antibody, IgG2, V domains shown, human mAb from IgG2 XenoMouse mice; also called AM-16; antibody O) VH: QVQLVQSGAEVKKPGASVKVSCKASGYTFTSYGISWVRQAPGQGLEWMGWISAYNGNTKYAQKLQGRVTMTTDTSTSTVYMELRSLRSDDTAVYYCARKQLVFDYWGQGTLVTVSS VL: EIVMTQSPATLSVSPGERATLSCRASQSISTSLAWYQQKPGQAPRLLIYGTSTRATGIPARFSGSGSGTEFTLTISSLQSEDFAVYFCQQYDIWPLTFGGGTKVEIK . 1260

Please report the recorded normalized MFI for AMH10/AML10 (antibody, IgG2, V domains shown, human mAb from IgG2 XenoMouse mice; also called AM-10; antibody F) VH: QVQLQESGPGLVKPSQTLSLTCTVSGGSISSGGYYWSWIRQHPGKGLEWIGYIYFSGSAYYNPSLKSRVAISVDTSKNQFSLKLSSVTAADTAVYYCAREYYDSSGYPDAFDIWGQGTMVTVSS VL: DIQMTQSPSSVSASVGDRVTITCRASQGIRSWLAWYQQKPGKAPKLLIFAASSLQSGVPSRFSGSGSGTEFTLTISSLQPEDFATYYCQQANNFPRTFGQGTKVEIK . 175

Please report the recorded normalized MFI for AMH7/AML7 (antibody, IgG2, V domains shown, human mAb from IgG2 XenoMouse mice; also called AM-7; antibody D) VH: QVQLVQSGAEVKKPGASVKVSCKASGYTLTRYGISWVRQAPGQGLEWMGWISAYNGNTNYAQKLQGRVTMTTDTSTSTAYMELRSLRSDDTAVYYCARRDYDILTGYYNGFDPWGQGTLVTVSS VL: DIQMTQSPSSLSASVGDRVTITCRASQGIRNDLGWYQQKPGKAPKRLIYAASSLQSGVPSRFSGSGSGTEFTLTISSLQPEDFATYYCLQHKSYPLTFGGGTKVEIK . 192

Now for another entry.
Please report the recorded normalized MFI for AMH6/AML6 (antibody, IgG2, V domains shown, human mAb from IgG2 XenoMouse mice; also called AM-6; antibody E) VH: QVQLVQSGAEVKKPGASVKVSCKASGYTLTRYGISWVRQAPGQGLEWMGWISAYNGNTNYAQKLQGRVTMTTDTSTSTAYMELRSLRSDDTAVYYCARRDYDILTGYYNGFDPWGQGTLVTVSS VL: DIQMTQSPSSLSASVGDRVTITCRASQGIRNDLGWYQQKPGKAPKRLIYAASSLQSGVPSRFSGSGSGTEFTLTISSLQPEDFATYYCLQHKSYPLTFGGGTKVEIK . 130
